- Test system: UACC-62 melanoma
- EXPERIMENT NOTES: NCI-60 one-dose screen, 48 h (100 = growth as untreated, 0 = no growth, -100 = all killed)
- SETUP CONDITIONS: 10 µM unless noted
Compounds without any hit were thinned out: in the full panel of roughly 83,000, 20% have a hit.
Provide the reported growth of each item.
Enter your answer as a number in %; do not include the unit.

So what's the measured growth for this one? COc1ccc(NC(=O)Nc2ccc3c(ccn3C(=O)c3cccc(F)c3)c2)cc1
65.9

Suppose we examine the compound Nc1ccccc1NC(=O)c1ccc(NC(=O)C/C=C/c2cccnc2)cn1 ; what growth value has been reported?
0.71

Query (compound): Cn1ccnc1C(=O)/C=C/C=C/c1ccc(C(=O)Nc2ccc(F)cc2)cc1 ; field requested: growth
32.8

Look up growth: COc1cc2nc(Cl)nc(Nc3cccc(C4=Nc5c(N)nc(N)nc5NC(c5ccc(Cl)cc5)C4)c3)c2cc1OC (stereo not drawn)
92

Reported growth for O=C(CSc1nc2ccccc2c(=O)n1-c1ccc(Cl)cc1)N/N=C/c1ccc(N2CCCCC2)cc1 : what is it?
73.5

Please report the recorded growth for O=C(O)c1ccc(-n2cc(CNc3cccc(Cl)c3)c(-c3ccc(F)cc3)n2)cc1 .
74.3

I would be grateful if you could share the reported growth for COc1ccc(-c2cc(-c3ccc(Cl)cc3)c(C#N)c(=O)n2Cc2ccc(C(=O)O)cc2)cc1 .
18.4

What value of measured growth is listed for COc1cc(OC)c(/C=C/S(=O)(=O)Cc2ccc(OC)c(NC(=O)CCC(=O)NO)c2)c(OC)c1 ?
13.8

----------
- System: MDA-MB-231 breast
- EXPERIMENT NOTES: NCI-60 one-dose screen, 48 h (100 = growth as untreated, 0 = no growth, -100 = all killed)
- SETUP CONDITIONS: 10 µM unless noted
The panel holds about 83,000 compounds, 20% with a hit somewhere; the sample as a whole holds those more often.
Output 1 for growth not less than 80%; output 0 otherwise.

// inclusive: growth at least 80%? input: CCNC(=O)N1CCc2cc(OC)c(OCCc3ccc(OC)cc3)cc2C1c1ccc(Cl)cc1C (stereo not drawn)
0

Does the reported growth for Cn1ccnc1C(=O)/C=C/c1ccc(CNC(=O)c2ccc(Cl)cc2)cc1 fall at or above the 80% mark?
0

Say whether CCOC(=O)c1c(Nc2ccccc2)nn2c(-c3ccccc3)ccnc12 shows growth of 80% or more.
1

Entry O=C(CSc1nc2ccccc2c(=O)n1-c1ccccc1)Nc1cccc(C(=O)/C=C/c2ccccc2Cl)c1 : is its growth no less than 80%?
1

Check this compound for growth at or above 80%: C[C@@H](Nc1c(C#N)cnc2ccc(-c3cnc(Cl)c(NS(C)(=O)=O)c3)cc12)c1ccccc1
0

Textbook exercise: given the entry Cc1ccc2sc3c(c2c1)OC(N)=C(C#N)C3c1ccc(Cl)cc1 (stereo not drawn) , state whether its growth is greater than or equal to 80%.
0

Identify whether the reported growth of the following compound is 80% or greater: Cc1cccc(/C=C/C(=O)Nc2ncc(Cc3cccc(C)c3)s2)c1
0

Tell me whether growth is at least 80% here: COc1cc(-c2ccc3ncnc(NCc4ccccc4)c3c2)cnc1OC
0

Can N#Cc1cnc2ccc(-c3cnc(N)nc3)cc2c1N1CCc2cc(F)c(Cl)cc21 be said to have growth at or above 80%?
0

Tell me whether growth is at least 80% here: COc1cc(-c2nn(C(C)(C)C)cc2-c2ccnc(NCCCNS(=O)(=O)c3ccc(Cl)cc3)n2)ccc1Cl
0

# bool: growth of CCCCCc1ccc(S(=O)(=O)Nc2cccc(-c3csc(NC(=O)CCCCCN4CCN(CCO)CC4)n3)c2)cc1 >= 80%
0

Does growth meet or surpass 80% for CCOC(=O)C1=NNC(c2ccc(Cl)cc2)C1C(=O)N1C(=S)NC(=O)C1CC(C)C (stereo not drawn) ?
1

These data points were gathered from PubChem BioAssay (NCI).
